experiment: Clearance in Rattus norvegicus Sprague-Dawley (rat) at 5 mg/kg, iv; type: ADME, organism-based; parameters: dose 5 mg/kg, route intravenous; conditions: in vivo
PROPERTY LABEL: clearance (mL/min/kg)

1) CCCN1CCN(C(=O)c2ccc3[nH]c(=O)c4c(c3c2)CCSC4)CC1 = 63.3

* * *

// reported ED50 per item
target: Poly [ADP-ribose] polymerase 1 (Homo sapiens, UniProt P09874); experiment: Inhibition of PARP-1 (unknown origin) expressed in CHO-K1 cells assessed as depletion of NAD(P)H after 2 hr by CCK-8 assay; assay type: cell-based
Sequence (P09874 whole entry): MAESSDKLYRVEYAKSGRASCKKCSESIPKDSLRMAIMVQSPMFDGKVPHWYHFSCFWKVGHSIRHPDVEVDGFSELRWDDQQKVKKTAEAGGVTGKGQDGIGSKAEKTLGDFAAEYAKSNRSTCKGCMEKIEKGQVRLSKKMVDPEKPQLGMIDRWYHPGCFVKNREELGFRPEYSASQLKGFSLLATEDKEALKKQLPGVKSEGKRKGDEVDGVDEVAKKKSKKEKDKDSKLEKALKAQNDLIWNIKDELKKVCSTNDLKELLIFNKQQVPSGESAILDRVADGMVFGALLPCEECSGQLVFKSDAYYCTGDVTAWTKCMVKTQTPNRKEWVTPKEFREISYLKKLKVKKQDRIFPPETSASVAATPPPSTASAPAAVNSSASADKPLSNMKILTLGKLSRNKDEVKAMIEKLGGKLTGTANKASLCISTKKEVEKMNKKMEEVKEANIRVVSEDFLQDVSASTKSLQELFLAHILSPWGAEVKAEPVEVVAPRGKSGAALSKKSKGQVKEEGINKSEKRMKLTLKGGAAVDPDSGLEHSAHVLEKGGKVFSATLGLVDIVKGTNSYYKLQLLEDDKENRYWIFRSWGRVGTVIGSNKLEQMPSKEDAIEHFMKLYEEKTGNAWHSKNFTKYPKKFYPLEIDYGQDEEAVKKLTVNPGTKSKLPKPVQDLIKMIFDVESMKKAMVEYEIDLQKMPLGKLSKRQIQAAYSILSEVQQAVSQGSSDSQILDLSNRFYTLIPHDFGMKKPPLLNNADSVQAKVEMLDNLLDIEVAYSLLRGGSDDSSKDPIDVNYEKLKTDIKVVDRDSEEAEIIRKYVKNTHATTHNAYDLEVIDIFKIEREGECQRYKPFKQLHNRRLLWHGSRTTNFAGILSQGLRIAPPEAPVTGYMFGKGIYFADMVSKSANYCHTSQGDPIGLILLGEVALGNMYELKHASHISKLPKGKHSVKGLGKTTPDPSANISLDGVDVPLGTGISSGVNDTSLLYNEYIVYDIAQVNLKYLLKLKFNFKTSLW
PROPERTY LABEL: ED50 (µM)

1. O=C(c1ccc2[nH]c(=O)c3c(c2c1)CCSC3)N1CCN(Cc2ccccc2)CC1 = 2.51
2. O=C(c1ccc2[nH]c(=O)c3c(c2c1)CCSC3)N1CCN(c2ccccc2)CC1 = 1.29
3. O=C(c1ccc2[nH]c(=O)c3c(c2c1)CCSC3)N1CCN(CCCC(F)(F)F)CC1 = 2.41
4. O=C(c1ccc2[nH]c(=O)c3c(c2c1)CCSC3)N1CCCCC1 = 1.26
5. O=C(NCCN1CCN(c2ccccc2)CC1)c1ccc2[nH]c(=O)c3c(c2c1)CCSC3 = 4.02
6. CCCC(C)N1CCN(C(=O)c2ccc3[nH]c(=O)c4c(c3c2)CCSC4)CC1 (stereo not given) = 0.46
7. O=C(c1ccc2[nH]c(=O)c3c(c2c1)CCSC3)N1CCN(C2CCCCC2)CC1 = 0.32

* * *

assay: Half life in Homo sapiens (human) liver microsomes at 1 uM by LC/MS/MS analysis; type: ADME
PROPERTY LABEL: half-life at 1 µM (min)

1) O=C1CC2(CCCC2)CC(=O)N1CCCCN1CCN(c2ncccn2)CC1 = 4
2) CCCN1CCN(C(=O)c2ccc3[nH]c(=O)c4c(c3c2)CCSC4)CC1 = 41.7
3) O=C(c1ccc2[nH]c(=O)c3c(c2c1)CCSC3)N1CCN(C2CCCC2)CC1 = 14.5
4) CC(C)CCN1CCN(C(=O)c2ccc3[nH]c(=O)c4c(c3c2)CCSC4)CC1 = 15.9

* * *

assay: Half life in Rattus norvegicus Sprague-Dawley (rat) at 5 mg/kg, iv; format: ADME, organism-based; set-up: dose 5 mg/kg, route intravenous; conditions: in vivo
PROPERTY LABEL: half-life (h)

1) CCCN1CCN(C(=O)c2ccc3[nH]c(=O)c4c(c3c2)CCSC4)CC1 = 1.4

* * *

Lab note: IC50 readings collected with Poly [ADP-ribose] polymerase 1 (Homo sapiens, UniProt P09874) for the following molecules.
PROPERTY LABEL: IC50 (nM)

1. O=C(O)c1ccc2[nH]c(=O)c3c(c2c1)CCSC3 = 78
2. CCN1CCN(C(=O)c2ccc3[nH]c(=O)c4c(c3c2)CCSC4)CC1 = 47
3. O=C(NCCN1CCOCC1)c1ccc2[nH]c(=O)c3c(c2c1)CCSC3 = 60
4. NCCNC(=O)c1ccc2[nH]c(=O)c3c(c2c1)CCSC3 = 17
5. CC(C)CCN1CCN(C(=O)c2ccc3[nH]c(=O)c4c(c3c2)CCSC4)CC1 = 65
6. O=C(NCCN1CCNCC1)c1ccc2[nH]c(=O)c3c(c2c1)CCSC3 = 36
7. O=C(c1ccc2[nH]c(=O)c3c(c2c1)CCSC3)N1CCN(C2CCCC2)CC1 = 47
8. O=C(NCCN1CCN(c2ccccc2)CC1)c1ccc2[nH]c(=O)c3c(c2c1)CCSC3 = 166
9. NCCCCNC(=O)c1ccc2[nH]c(=O)c3c(c2c1)CCSC3 = 27
10. CCCCN1CCN(C(=O)c2ccc3[nH]c(=O)c4c(c3c2)CCSC4)CC1 = 42

* * *

In this section, each of the compounds is paired with its reported ED50.
target: Poly [ADP-ribose] polymerase 1 (Homo sapiens); test: Inhibition of PARP-1 (unknown origin) expressed in CHO-K1 cells assessed as depletion of NAD(P)H after 2 hr by CCK-8 assay; assay type: cell-based
PROPERTY LABEL: ED50

1) O=C(c1ccc2[nH]c(=O)c3c(c2c1)CCSC3)N1CCNCC1 = > 30 µM
2) O=C(c1ccc2[nH]c(=O)c3c(c2c1)CCSC3)N1CCN(c2ccncc2)CC1 = > 30 µM
3) NCCCNC(=O)c1ccc2[nH]c(=O)c3c(c2c1)CCSC3 = > 30 µM

Origin of values: ChEMBL document CHEMBL3046242
